Entries and their Kd values follow.
Target: Coa-F (Coa 311-505) (Staphylococcus aureus strain Newman, UniProt P08515 1-218 = GST)
Sequence (P08515 whole entry): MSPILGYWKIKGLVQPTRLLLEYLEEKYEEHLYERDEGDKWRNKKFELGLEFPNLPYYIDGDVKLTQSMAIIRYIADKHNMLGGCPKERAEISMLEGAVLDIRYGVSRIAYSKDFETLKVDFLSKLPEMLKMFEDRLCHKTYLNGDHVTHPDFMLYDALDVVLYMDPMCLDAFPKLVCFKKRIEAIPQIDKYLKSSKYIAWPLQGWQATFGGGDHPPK
Assay: apparent Kd from half-maximal binding in ELISA (GraphPad Prism)

| binder | readingUnit | Kd |
| --- | --- | --- |
| FBE5-F9 (scFv, V domains shown) VH: QMQLVQSGGGVVQPGRSLRLSCAASGFTFSSYGMHWVRQAPGKGLEWVAVISYDGSNKYYADSVKGRFTISRDNSKNTLYLQMNSLRAEDTAVYYCAKEGDGDYGGVLDYWGQGTLVTVSS VL: QSVLTQPPSVSAAPGQKVTISCSGSSSNIEKNYVSWYQQLPGTAPKLLIYDNNKRPSGIPDRFSGSKSGTSATLGITGLQTGDEADYYCGTWDSSLSAVVFGGGTKLTVL | nM | 1.63 |
| FBE5-E5 (scFv, V domains shown) VH: QMQLVQSGGGVVQPGRSLRLSCAASGFTFSSYGMHWVRQAPGKGLEWVAVISYDGSNKYYADSVKGRFTISRDNSKNTLYLQMNSLRGEDTAVYYCAREGGWEPNGLDYWGQGTLVTVSS VL: QSVLTQPPSVSAAPGQKVTISCSGSSSNIGNNYVSWYQQLPGTAPKLLIYDNNKRPSGIPDRFSGSKSGTSATLGITGLQTGDEADYYCGTWDSSLSAEVFGGGTKLTVL | nM | 9.5 |
